experimental-system: serotonin 5-HT1A receptor (human recombinant expressed in HEK-293 cells) (Homo sapiens, UniProt P08908)
Sequence (P08908 whole entry): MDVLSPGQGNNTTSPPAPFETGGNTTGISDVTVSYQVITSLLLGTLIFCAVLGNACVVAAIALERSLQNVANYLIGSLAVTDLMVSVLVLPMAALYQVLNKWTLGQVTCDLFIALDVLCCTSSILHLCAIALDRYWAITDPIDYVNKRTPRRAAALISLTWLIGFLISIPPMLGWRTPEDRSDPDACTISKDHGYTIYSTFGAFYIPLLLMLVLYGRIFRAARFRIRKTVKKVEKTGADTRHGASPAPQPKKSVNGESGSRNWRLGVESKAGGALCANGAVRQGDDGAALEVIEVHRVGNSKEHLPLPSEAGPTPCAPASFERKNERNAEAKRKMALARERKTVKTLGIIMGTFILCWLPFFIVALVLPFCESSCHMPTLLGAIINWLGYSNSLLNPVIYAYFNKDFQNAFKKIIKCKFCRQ
run-description: Serotonin, 5HT1A (human recombinant) radioligand binding assay, [3H]-8-OH-DPAT
measurement-conditions: human recombinant in HEK-293 cells, six concentrations 0.5-1000 nM
Counter-ions that a name gives are not always drawn.
The reader will find reported IC50 values listed item by item below.
Numbers only; they are read as nM.

// known answers, use as guide
{"columns": ["compound", "measured-parameter", "value-measured"],
 "data": [
  ["CCOC(=O)CN1C(=O)COc2ccc(OCCCCN3CCN(c4cccc(Cl)c4Cl)CC3)cc21 [Compound 28c, hydrochloride]", "IC50", 4.45],
  ["CCOC(=O)C(C)(C)Oc1ccccc1N1CCN(CCCCOc2ccc3c(c2)NC(=O)CO3)CC1 [Compound 18c, hydrochloride]", "IC50", 4.41],
  ["CCOC(=O)C(C)(C)CCOc1ccccc1N1CCN(CCCCOc2ccc3c(c2)NC(=O)CO3)CC1 [Compound 18b, hydrochloride]", "IC50", 5.44]
]}

Task item: Find the recorded IC50 belonging to O=C(CCCN1CCN(c2cccc(Cl)c2Cl)CC1)Nc1ccc2c(c1)NC(=O)CO2 [Compound 5b, hydrochloride] and report it.
Reply: 18.5

Task item: Now give it for CCOC(=O)CCCOc1ccccc1N1CCN(CCCCOc2ccc3c(c2)NC(=O)CO3)CC1 [Compound 18a, hydrochloride] too.
Reply: 16.7
